- assay_target: Vascular endothelial growth factor receptor 2 (Homo sapiens, UniProt P35968)
- Sequence (P35968 whole entry): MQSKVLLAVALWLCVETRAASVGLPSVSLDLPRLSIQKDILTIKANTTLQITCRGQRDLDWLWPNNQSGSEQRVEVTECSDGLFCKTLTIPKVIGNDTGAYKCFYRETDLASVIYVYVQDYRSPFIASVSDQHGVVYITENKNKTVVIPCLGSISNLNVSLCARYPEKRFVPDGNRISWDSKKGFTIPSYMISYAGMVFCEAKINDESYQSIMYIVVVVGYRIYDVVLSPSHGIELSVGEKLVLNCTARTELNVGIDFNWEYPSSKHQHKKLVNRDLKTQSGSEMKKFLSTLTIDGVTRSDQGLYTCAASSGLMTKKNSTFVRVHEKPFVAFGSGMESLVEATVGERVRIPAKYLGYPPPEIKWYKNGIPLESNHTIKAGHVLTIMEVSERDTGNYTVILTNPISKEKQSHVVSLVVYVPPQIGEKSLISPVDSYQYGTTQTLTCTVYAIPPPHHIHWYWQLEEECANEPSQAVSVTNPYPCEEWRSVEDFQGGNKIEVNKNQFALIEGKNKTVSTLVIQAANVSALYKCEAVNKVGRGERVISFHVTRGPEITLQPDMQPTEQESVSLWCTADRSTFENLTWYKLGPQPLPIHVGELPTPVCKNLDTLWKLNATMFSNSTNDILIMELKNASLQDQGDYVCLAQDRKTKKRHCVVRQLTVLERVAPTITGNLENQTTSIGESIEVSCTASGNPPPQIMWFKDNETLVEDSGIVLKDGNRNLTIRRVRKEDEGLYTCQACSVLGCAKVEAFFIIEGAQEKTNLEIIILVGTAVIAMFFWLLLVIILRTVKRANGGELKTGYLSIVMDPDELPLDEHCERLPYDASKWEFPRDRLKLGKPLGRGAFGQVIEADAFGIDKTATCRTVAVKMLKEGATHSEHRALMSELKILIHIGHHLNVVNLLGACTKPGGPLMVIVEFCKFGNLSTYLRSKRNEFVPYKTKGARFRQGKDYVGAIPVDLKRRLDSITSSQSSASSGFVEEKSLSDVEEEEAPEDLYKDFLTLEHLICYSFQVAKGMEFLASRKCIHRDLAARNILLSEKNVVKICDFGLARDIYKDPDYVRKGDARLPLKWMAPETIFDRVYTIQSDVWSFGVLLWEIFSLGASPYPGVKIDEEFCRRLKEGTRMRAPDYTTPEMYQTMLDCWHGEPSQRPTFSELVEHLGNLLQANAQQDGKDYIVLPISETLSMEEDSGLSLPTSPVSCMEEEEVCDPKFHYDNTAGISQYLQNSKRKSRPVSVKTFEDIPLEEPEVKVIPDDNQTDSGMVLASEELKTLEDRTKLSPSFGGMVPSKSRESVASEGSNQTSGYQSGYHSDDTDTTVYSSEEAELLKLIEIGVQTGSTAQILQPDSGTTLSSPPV
- test_method_notes: Inhibition of human N-terminal His-tagged non-phosphorylated VEGFR2 preincubated for 120 mins in presence of ATP by AlphaScreen analysis
quantity_name: IC50 (nM)
One number for each entry, in nM.

Req: For the compound Cn1ccc2ncnc(Oc3ccc(NC(=O)Nc4cccc(C(F)(F)F)c4)c(F)c3)c21 , what IC50 is on record?
Resp: 0.033

====

- assay_target: Vascular endothelial growth factor receptor 2 (Homo sapiens, UniProt P35968)
- test_method_notes: Inhibition of human N-terminal His-tagged non-phosphorylated VEGFR2 after 60 mins by activity based 100 fold dilution assay
quantity_name: Ki
Please answer using the number first and the unit second.

Req: For the compound Cn1ccc2ncnc(Oc3ccc(NC(=O)Nc4cccc(C(F)(F)F)c4)c(F)c3)c21 , what Ki is on record?
Resp: 0.024 nM
